molecular target: Induced myeloid leukemia cell differentiation protein Mcl-1 (Homo sapiens); test: Inhibition of FAM labelled Bid-BH3 binding to N-terminal GST-tagged human recombinant MCL1 expressed in Escherichia coli […] after 60 mins by TR-FRET assay
Sequence (Q07820 whole entry): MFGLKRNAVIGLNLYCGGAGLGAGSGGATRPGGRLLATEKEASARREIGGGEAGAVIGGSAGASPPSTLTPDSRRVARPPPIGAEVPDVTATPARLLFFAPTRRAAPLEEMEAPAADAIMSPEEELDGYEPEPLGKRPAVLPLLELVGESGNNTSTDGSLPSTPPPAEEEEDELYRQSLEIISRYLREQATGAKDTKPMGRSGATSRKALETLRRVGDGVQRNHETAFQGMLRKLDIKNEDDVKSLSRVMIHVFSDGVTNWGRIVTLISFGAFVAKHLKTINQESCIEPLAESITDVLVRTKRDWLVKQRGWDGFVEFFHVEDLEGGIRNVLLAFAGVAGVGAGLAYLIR

# chem_smiles, system_name, IC50, µM
records = [
    ("Cc1c(-c2cccc3c(CCCOc4cccc5ccccc45)c(C(=O)O)[nH]c23)c(COc2ccc(B(O)O)cc2)nn1C", "Induced myeloid leukemia cell differentiation protein Mcl-1 (Homo sapiens)", 0.162),
]

----------
target: Induced myeloid leukemia cell differentiation protein Mcl-1 (Homo sapiens); test: Displacement of FAM labelled Bid-derived peptide from MCL1 (unknown origin) incubated for 1 min by fluorescence polarization assay

# chem_smiles, Ki / nM
records = [
    ("O=C(O)c1cc2ccccc2n1S(=O)(=O)c1ccc(OCc2cccc(Cl)c2)cc1", 480),
]

Just for reference, ChEMBL document CHEMBL4145520 is where these values come from.
